TEST SUMMARY: API thermodynamic solubility
Format: physicochemical
CONDITION SET: n-hexane, organic solvent or mixture, thermodynamic from solid
MEASURE NAME: solubility thermodynamic

So what's the measured solubility thermodynamic for this one? "CC(C)n1c(=O)cc(N[C@@H](C)c2ccccc2)[nH]c1=O"
< 10 µg/mL

====

TEST SUMMARY: Solubility estimates at ambient temperature
Type: physicochemical
CONDITION SET: organic solvent or mixture, thermodynamic from solid, MeOH:water (90:10), Form A (Lot 2-4), read-out: Solubility (estimate)
MEASURE NAME: solubility

So what's the measured solubility for this one? "CC(C)n1c(=O)cc(N[C@@H](C)c2ccccc2)[nH]c1=O"
< 1000 µg/mL
